System: NCI-H23
EXPERIMENT: NCI tumour cell line growth inhibition, 48 h
Activity calls are given as the source filed them. Cut-off read from the data, not from the text of the source: active = GI50 up to about 1.1 µM and inactive = higher.
Catalogue of GI50 values

Check out these entries, answers already filled in.
# COMPOUND, GI50
measured = [
    ("O=C(NCc1cccnc1)C(=O)NCc1cccnc1", "> 100 µM (inactive)"),
    ("COc1cc(-c2c(C)c(C)nc(OC)c2C#N)cc(OC)c1OC", "> 100 µM (inactive)"),
    ("O=C(CCC(=O)Nc1ccc(Cl)cc1)CC(=O)c1ccc(F)cc1", "> 100 µM (inactive)"),
    ("CC1(c2sccc2Cl)CC(c2sccc2Cl)=C(C#N)C(=C(C#N)C#N)N1 (centres undefined)", "17.9 µM (inactive)"),
    ("CCOC(=O)C1=C(C)N(c2ccc(OC)cc2)C2(O)C=CC(O)=C3C(=O)c4ccccc4C(=O)C312 (centres undefined)", "16.1 µM (inactive)"),
    ("CC1=NN(c2cccc(Cl)c2)C2(C1=Cc1ccc(N(C)C)cc1)C(Cl)C(=O)N2c1nc2ccccc2s1 (centres undefined)", "45.5 µM (inactive)"),
]

Using the record for Nc1nc2cc(COc3ccc(C(=O)O)cc3)ccc2nc1-c1ccccc1 , report its GI50.
> 10 µM (inactive)

Look at this compound and give its reported GI50. C[n+]1c(-c2ccc(/C=N/Nc3ccnc(N/N=C/c4ccc(-c5cn6ccsc6[n+]5C)cc4)n3)cc2)cn2ccsc21
22.9 µM (inactive)

What value of GI50 has been reported for the following compound? COC1/C=C\OC2(C)Oc3c(C)c(O)c4c(O)c(c(/C=N\OCCCc5ccccc5)c(O)c4c3C2=O)NC(=O)/C(C)=C\C=C/C(C)C(O)C(C)C(O)C(C)C(OC(C)=O)C1C (centres undefined)
3.21 µM (inactive)

----------
System: UACC-62
EXPERIMENT: NCI tumour cell line growth inhibition, 48 h
Activity calls are given as the source filed them. Cut-off read from the data, not from the text of the source: active = GI50 up to about 1.1 µM and inactive = higher.
The reply should name one outcome from active, inactive

# MOLECULE, DISCRETE_LABEL
data = [
    ("Cc1cc(C(=O)NCCN(C)C)c2nc3ccccc3nc2c1", "inactive"),
    ("S=CN1CCCCC1", "inactive"),
    ("CSc1nc(SC)c2cnn(CC3CO3)c2n1 (stereo not drawn)", "inactive"),
    ("COc1ccc2nc3cc(Cl)ccc3c(NCCCCCC(=O)NC(COc3cnc4c(ccc5cccnc54)c3)COc3cnc4c(ccc5cccnc54)c3)c2c1", "inactive"),
    ("CCOC(=O)CCC(NC(=O)c1ccc(NC(OC)c2nc3cc(C(F)(F)F)ccc3nc2-c2ccccc2)cc1)C(=O)OCC (stereo not drawn)", "inactive"),
    ("N#Cc1c(-c2ccccc2)cc(-c2ccc(N)cc2)[nH]c1=O", "inactive"),
]

Check the results log: what was the call for O=C1CCCC2=C1CC1=C(CCCC1=O)N2c1cccc2ccccc12 ?
inactive

Assay outcome for Cc1cccc(/C=N/NC(=S)N2CCCC2)n1 : what was it?
active

Which outcome was assigned to [N-]=[N+]=CC(=O)OC1CCOCC1 in this test?
inactive

----------
Test system: EKVX
EXPERIMENT: NCI tumour cell line growth inhibition, 48 h
Calls of active or inactive are those of the source. Cut-off read from the data, not from the text of the source: active = GI50 up to about 1.1 µM and inactive = higher.
MEASUREMENT_TYPE: GI50

Worked cases, GI50 given:
# COMPOUND, MEASUREMENT_TARGET, GI50
records = [
    ("CNS(=O)(=O)NNS(=O)(=O)c1ccc(OC)cc1", "EKVX", "> 100 µM (inactive)"),
    ("C[C@H]1CC[C@@]2(OC1)O[C@H]1C[C@H]3[C@@H]4CC[C@@H]5C[C@@H](OC6OC(CO)C(O)C(O)C6OC6OC(CO)C(O)C(O)C6O)CC[C@]5(C)[C@H]4CC[C@]3(C)[C@H]1[C@@H]2C (stereo not given in full)", "EKVX", "2.08 µM (inactive)"),
    ("CNc1ncnc2c1cnn2COCC(O)CO (stereo not given)", "EKVX", "> 100 µM (inactive)"),
    ("Nc1nc(Cl)cc(NCC2(CO)CCC2)n1", "EKVX", "75.2 µM (inactive)"),
    ("C#CCC(O)c1ccccc1C(O)CC#C (stereo not given)", "EKVX", "> 100 µM (inactive)"),
    ("C=CCN(N=O)C(=O)N(CCCCC(NC(C)=O)C(=O)NCc1ccccc1)Cc1ccccc1 (stereo not given)", "EKVX", "38.1 µM (inactive)"),
    ("COC1OC(OC)C2C(c3c(C)cc(C)cc3C)=NOC12 (stereo not given)", "EKVX", "> 100 µM (inactive)"),
    ("O=C1CC(Cl)c2c1csc2Br (stereo not given)", "EKVX", "20.3 µM (inactive)"),
    ("Clc1ccc2c(c1)N(CCCN1CCCC13CCCCC3)c1ccccc1S2", "EKVX", "11.9 µM (inactive)"),
    ("CC(C)=CCN(N=O)c1ncnc2[nH]cnc12", "EKVX", "> 100 µM (inactive)"),
]

Need GI50, item Cc1cccc(C(=O)O)c1C(=O)c1cccc2ccccc12
> 100 µM (inactive)

Entry CSc1cc(Cl)c(C)cc1S(=O)(=O)NC(=O)NNc1ccc(Cl)cc1 has what GI50?
> 100 µM (inactive)

// query GI50 value for entry CC(=O)NNC1=NN(C(C)=O)C2(S1)C(=O)Nc1ccc(C)cc12 (stereo not given)
78.9 µM (inactive)

# lookup: GI50 of Cc1ccc(/N=C2/SC(c3ccc(C)cc3)(c3ccc(C)cc3)c3ccccc32)cc1
> 100 µM (inactive)

Entry Nc1nc(N)c(N=O)c(OCC2CCCCC2)n1 has what GI50?
20.5 µM (inactive)
